Test system: NCI-H23 lung
Assay: NCI tumour cell line growth inhibition, 48 h
ASSAY ENDPOINT: GI50

Check out these entries, answers already filled in.
>  <COMPOUND>
C(=C\c1nc2ccccc2s1)/c1ccc(N2CCOCC2)s1

>  <TARGET OF ASSAY>
NCI-H23 lung

>  <GI50>
80.9 µM

$$$$
>  <COMPOUND>
COCO[C@@H]1CC2C=Nc3cc(OCc4ccccc4)c(OC)cc3C(=O)N2C1 (stereo not given in full)

>  <TARGET OF ASSAY>
NCI-H23 lung

>  <GI50>
0.672 µM

$$$$
>  <COMPOUND>
O=c1cc(-c2ccccc2)nc2cc(-c3ccco3)[nH]n12

>  <TARGET OF ASSAY>
NCI-H23 lung

>  <GI50>
13.2 µM

$$$$
>  <COMPOUND>
Cc1nn(-c2ccccc2)c(C)c1/C=N/N1CCN(Cc2ccccc2)CC1

>  <TARGET OF ASSAY>
NCI-H23 lung

>  <GI50>
41.7 µM

$$$$

Now let's try a different one.
Any idea what GI50 was measured for O=C(c1ccncc1)N1CCN(C2=NS(=O)(=O)c3ccccc3N2c2ccccc2)CC1 ?
7.43 µM

----------
Test system: COLO 205 colon
Experiment: NCI tumour cell line growth inhibition, 48 h
ASSAY ENDPOINT: GI50

// solved cases for GI50 follow
>  <MOLECULE>
Cc1cccc2c1ccc1c3occ(C)c3c(=O)oc21

>  <TARGET OF ASSAY>
COLO 205 colon

>  <GI50>
> 100 µM

$$$$
>  <MOLECULE>
COc1ccc2c(c1)c(-c1nc(-c3cn(C)c4ncccc34)cs1)cn2CCCCN1CCOCC1

>  <TARGET OF ASSAY>
COLO 205 colon

>  <GI50>
1.69 µM

$$$$
>  <MOLECULE>
O=C1C(Cl)=C(Nc2ccccn2)C(=O)c2ccccc21

>  <TARGET OF ASSAY>
COLO 205 colon

>  <GI50>
3.23 µM

$$$$
>  <MOLECULE>
COc1cc(/C=N/Nc2ncnc3c2cnn3Cc2ccccc2)ccc1O

>  <TARGET OF ASSAY>
COLO 205 colon

>  <GI50>
10.6 µM

$$$$
>  <MOLECULE>
Cc1csc(-c2ccc3c(c2)COC3(CCCN(C)C)c2ccc(F)cc2)c1 (centres undefined)

>  <TARGET OF ASSAY>
COLO 205 colon

>  <GI50>
2.59 µM

$$$$
>  <MOLECULE>
CC#CC(=O)N[C@H]1CCCN(c2c(F)cc(C(N)=O)c3[nH]c(C)c(C)c23)C1

>  <TARGET OF ASSAY>
COLO 205 colon

>  <GI50>
21.3 µM

$$$$
>  <MOLECULE>
Cc1cccc2c1NC(=O)C2(c1ccc(O)cc1)c1ccc(O)cc1

>  <TARGET OF ASSAY>
COLO 205 colon

>  <GI50>
0.0135 µM

$$$$
>  <MOLECULE>
O=C(Nc1cccc(-n2cc(-c3ccncc3)c(-c3ccc(O)c(Cl)c3)n2)c1)c1ccc(N2CCOCC2)c(C(F)(F)F)c1

>  <TARGET OF ASSAY>
COLO 205 colon

>  <GI50>
4.62 µM

$$$$

Quick one: GI50 of c1ccc(C2=NN[C@H](c3cn(-c4ccccc4)nc3-c3ccccc3)C2)cc1 ?
6.55 µM

----------
Tested on: HT29 colon
Assay: NCI tumour cell line growth inhibition, 48 h
GI50 by entry:

>  <COMPOUND>
O=c1cc(-c2ccccc2)nc2cc(-c3ccco3)[nH]n12

>  <GI50>
4.22 µM

$$$$
>  <COMPOUND>
O=C1c2ccccc2CCC1(Br)Br

>  <GI50>
2.28 µM

$$$$
>  <COMPOUND>
CC(=O)Nc1ccc(S(=O)(=O)c2ccc(NC(C)=O)cc2)cc1

>  <GI50>
> 100 µM

$$$$
>  <COMPOUND>
Cc1cccc2c1ccc1c3occ(C)c3c(=O)oc21

>  <GI50>
> 100 µM

$$$$
>  <COMPOUND>
COCO[C@@H]1CC2C=Nc3cc(OCc4ccccc4)c(OC)cc3C(=O)N2C1 (stereo partly specified)

>  <GI50>
0.4 µM

$$$$

Would you mind telling me what GI50 value was observed for O=C(Nc1ccc(Cl)cc1F)c1cc(Cl)ccc1O ?
3.2 µM

----------
System: NCI-H226 lung
Assay: NCI tumour cell line growth inhibition, 48 h
ASSAY ENDPOINT: TGI

Known TGI results, listed for orientation:
>  <COMPOUND>
O=c1cc(-c2ccccc2)nc2cc(-c3ccco3)[nH]n12

>  <TARGET OF ASSAY>
NCI-H226 lung

>  <REPORTED RESULT>
> 100 µM

$$$$
>  <COMPOUND>
O=c1[nH]cnc2c1ncn2C1SC(CO)C(O)C1O (stereo not given)

>  <TARGET OF ASSAY>
NCI-H226 lung

>  <REPORTED RESULT>
> 100 µM

$$$$
>  <COMPOUND>
CCOC(=O)NN(C(=O)OCC)C(C(=O)c1ccc(Cl)cc1)=C1NCCN1

>  <TARGET OF ASSAY>
NCI-H226 lung

>  <REPORTED RESULT>
> 100 µM

$$$$
>  <COMPOUND>
CO[C@]12CCC(=O)N1C=Cc1c2[nH]c2ccccc12

>  <TARGET OF ASSAY>
NCI-H226 lung

>  <REPORTED RESULT>
> 100 µM

$$$$

Now examine the next entry.
# TGI lookup, item O=[N+]([O-])c1cc([N+](=O)[O-])c(C(Cl)C(Cl)c2ccccc2)cc1C(Cl)C(Cl)c1ccccc1 (stereo not given)
5.18 µM

----------
# TGI annotations
Test system: TK-10 renal
Assay: NCI tumour cell line growth inhibition, 48 h

Below, 5 molecules whose answers are already recorded.
>  <MOLECULE>
Nc1nc(Cl)nc2c1ncn2C1CCC(COP(=O)(O)OP(=O)(O)OP(=O)(O)O)O1 (stereo unspecified)

>  <REPORTED RESULT>
> 100 µM

$$$$
>  <MOLECULE>
Nc1ncnc2c1c(C(=O)NO)cn2C1OC(CO)C(O)C1O (stereo unspecified)

>  <REPORTED RESULT>
> 31.4 µM

$$$$
>  <MOLECULE>
CCN1C(=O)C(N=[N+]=[N-])(c2ccccc2)C(=O)c2ccccc21 (stereo unspecified)

>  <REPORTED RESULT>
> 100 µM

$$$$
>  <MOLECULE>
N#CC(C#N)=Cc1ccc(Oc2ccccc2)cc1

>  <REPORTED RESULT>
> 100 µM

$$$$
>  <MOLECULE>
CCOC(=O)/C(=C/c1ccc(Cl)cc1)N(CC)CC

>  <REPORTED RESULT>
> 100 µM

$$$$

Reported TGI for Cc1cn2c(/C=N/N=C(N)N)c(-c3cc(Cl)sc3Cl)nc2s1 : what is it?
2.95 µM

----------
System: SK-MEL-28 melanoma
Assay: NCI tumour cell line growth inhibition, 48 h
ASSAY ENDPOINT: TGI

>  <COMPOUND>
O=C1C2C3CCC(C2C(=O)N1CO)C1C2C(=O)N(CO)C(=O)C2C31 (stereo not drawn)

>  <REPORTED RESULT>
> 100 µM

$$$$

I am curious: what TGI value has been reported for Cc1cn(CCCCOC(=O)NC(CCCNC(N)=O)C(=O)O)c(=O)[nH]c1=O (stereo not drawn) ?
> 100 µM

Look up TGI: O=c1[nH]c(=O)n(C2OC(CO)C(O)C2O)cc1OCc1ccccc1 (stereo not drawn)
> 100 µM

Would you kindly share the measured TGI for C=CCCCCn1c2ccccc2c2c(C)c3c[n+](C)ccc3c(C)c21 ?
1.41 µM

Given the compound C=CCN1C[C@@H](C)N([C@@H](c2ccccc2)c2ccc(C(=O)N(CC)CC)cc2)C[C@@H]1C , what is its reported TGI?
> 100 µM

Param item = CC(=O)OC(C#N)CC(C)(C)/[N+]([O-])=[N+](\[O-])C(C)(C)CC(C#N)OC(C)=O (stereo not drawn) ; retrieve measured TGI.
96.4 µM

Return reported TGI; argument: O=c1[nH]cnc2c1ncn2C1SC(CO)C(O)C1O (stereo not drawn)
> 100 µM

Give its TGI value. Item: c1ccc(C2=NN[C@H](c3cn(-c4ccccc4)nc3-c3ccccc3)C2)cc1
> 100 µM

----------
Tested on: LXFL 529 NSCLC
Test: NCI tumour cell line growth inhibition, 48 h
ASSAY ENDPOINT: TGI

These recorded examples may help you get a feel for the data.
>  <COMPOUND>
CCOc1ccc(N=Nc2c(-c3ccccc3)nn(C(=O)CC(=O)Nc3cccc(C)c3)c2-c2ccccc2)cc1

>  <TARGET OF ASSAY>
LXFL 529 NSCLC

>  <TGI>
> 100 µM

$$$$
>  <COMPOUND>
COc1ccc2c([nH]c3cc(O)c(C)cc32)c1CC=C(C)C

>  <TARGET OF ASSAY>
LXFL 529 NSCLC

>  <TGI>
> 25 µM

$$$$
>  <COMPOUND>
COC(=O)C1=C(C)N(NC(=O)c2cccc(Cl)c2)C(C)(O)C12CCOC2=O (centres undefined)

>  <TARGET OF ASSAY>
LXFL 529 NSCLC

>  <TGI>
> 100 µM

$$$$
>  <COMPOUND>
NC(N)=NCCCC(NCc1c2ccccc2[n+]([O-])c2ccccc12)C(=O)O (centres undefined)

>  <TARGET OF ASSAY>
LXFL 529 NSCLC

>  <TGI>
> 100 µM

$$$$
>  <COMPOUND>
O=C(NCCCCCCNC(=O)NC1OCC(O)C(O)C1O)NC1OCC(O)C(O)C1O (centres undefined)

>  <TARGET OF ASSAY>
LXFL 529 NSCLC

>  <TGI>
> 100 µM

$$$$

Given the entry CCCCCCCSCC1OC(n2cnc3c(N)ncnc32)C(O)C1O (centres undefined) , report its measured TGI.
29.8 µM

So what's the measured TGI for this one? O=[N+]([O-])c1cc([N+](=O)[O-])c(C(Cl)C(Cl)c2ccccc2)cc1C(Cl)C(Cl)c1ccccc1 (centres undefined)
2.87 µM

Which value of TGI has been reported for O=C(CC(=O)c1cccc([N+](=O)[O-])c1)C(=O)Nc1nc([N+](=O)[O-])cs1 in the records?
> 100 µM

TGI for N#CC(C(=O)C(=O)Nc1ccc(Cl)c(Cl)c1)c1ccc(Cl)cc1 (centres undefined) ?
> 100 µM
